System: erythrocytes infected with 3D7 trophozoites
Assay type: cell-based, Plasmodium falciparum
Conditions: sheet Ratio; Exp2, 1hr
Peptide text beside a SMILES is read from it.
Quick rule: Ratio of metabolite abundance, Exp2_1hr of at least 1 means YES, below that means NO.

As a guide, the following entries are already answered.
                                   compound  class_assignment
0  O=P(O)(OC[C@H](O)CO)OC1[C@H](O)[C@H](O)C(O)[C@H](O)[C@H]1O (some centres unmarked) [sn-glycero-3-Phospho-1-inositol]               YES
1  C[C@H](NC(=O)[C@@H]1CCCN1)C(=O)N[C@@H](CCC(=O)O)C(=O)N[C@@H](Cc1ccccc1)C(=O)O [PAEF] (H-PAEF-OH)                NO
2  Nc1nc2c(ncn2[C@H]2C[C@H](O)[C@@H](COP(=O)(O)O)O2)c(=O)[nH]1 [dGMP]               YES

Problem: Test whether the compound CC(C)[C@H](NC(=O)[C@@H]1CCCN1)C(=O)N[C@@H](CC(N)=O)C(=O)N[C@@H](Cc1ccccc1)C(=O)O [PVNF] (H-PVNF-OH) records Ratio of metabolite abundance, Exp2_1hr of 1 or higher.
Result: NO

Problem: Now the same for O=P(O)(O)OC[C@H](O)CO [sn-Glycerol 3-phosphate]
Result: YES

Problem: Now the same for NC(=O)N[C@@H](CC(=O)O)C(=O)O [N-Carbamoyl-L-aspartate]
Result: NO

----------
Tested on: erythrocytes infected with 3D7 trophozoites
Assay type: cell-based, Plasmodium falciparum
Conditions: sheet Ratio; Exp3, 3hr
Peptide text beside a SMILES is read from it.
Give Ratio of metabolite abundance, Exp3_3hr for every item shown.
One number for each entry.

>>> print(df.to_string())
                                   compound  measured
0  O=P(O)(O)OC[C@H]1OC(O)[C@H](O)[C@@H](O)[C@@H]1O (stereo partly shown) [Glucose-6-Phosphate]     0.791
1  Cc1cn([C@H]2C[C@H](O)[C@@H](COP(=O)(O)O)O2)c(=O)[nH]c1=O     1.245
2  CC(C)[C@H](NC(=O)[C@H](CC(N)=O)NC(=O)[C@@H](N)[C@@H](C)O)C(=O)N[C@@H](CCCCN)C(=O)O [TNVK] (H-TNVK-OH)    0.3409

Moving on to another compound below.
Problem: Recorded Ratio of metabolite abundance, Exp3_3hr for Nc1ncnc2c1ncn2[C@@H]1O[C@H](COP(=O)(O)O)[C@@H](O)[C@H]1O with erythrocytes infected with 3D7 trophozoites, please?
Result: 1.491

----------
Test system: erythrocytes infected with 3D7 trophozoites
Format: cell-based, Plasmodium falciparum
Conditions: sheet Ratio; Exp2, 1hr
Peptide text beside a SMILES is read from it.
Give Ratio of metabolite abundance, Exp2_1hr for every item shown.
Give bare numbers.

Solved entries (count: 5):
COMPOUND	STUDY TARGET	Ratio of metabolite abundance, Exp2_1hr
O=C[C@H](O)[C@H](O)[C@H](O)COP(=O)(O)O [Ribose-5-phosphate]	erythrocytes infected with 3D7 trophozoites	1.429
O=C(O)c1cc(=O)[nH]c(=O)[nH]1 [Orotate]	erythrocytes infected with 3D7 trophozoites	0.4622
O=P(O)(O)OC[C@H]1OC(O)[C@H](O)[C@@H](O)[C@@H]1O (stereo partly drawn) [Glucose-6-Phosphate]	erythrocytes infected with 3D7 trophozoites	0.9729
N[C@@H](CO)C(=O)N[C@@H](Cc1ccccc1)C(=O)NCC(=O)N[C@@H](CC(=O)O)C(=O)O [SFGD] (H-SFGD-OH)	erythrocytes infected with 3D7 trophozoites	0.9574
NC(=O)c1ccc[n+]([C@@H]2O[C@H](COP(=O)([O-])OP(=O)(O)OC[C@H]3O[C@@H](n4cnc5c(N)ncnc54)[C@H](OP(=O)(O)O)[C@@H]3O)[C@@H](O)[C@H]2O)c1	erythrocytes infected with 3D7 trophozoites	1.042

Dear reader, for each entry below, please note its Ratio of metabolite abundance, Exp2_1hr.
1. O=C(O)[C@H](Cc1ccccc1)NC(=O)[C@H](Cc1cnc[nH]1)NC(=O)[C@@H]1CCCN1 [PHF] (H-Pro-His-Phe-OH)
2. O=C(O)CC[C@H](NC(=O)[C@@H]1CCCN1)C(=O)O [PE] (H-Pro-Glu-OH)

Result:
[2.081, 2.25]

Dear reader, for each entry below, please note its Ratio of metabolite abundance, Exp2_1hr.
1. Cc1cn([C@H]2C[C@H](O)[C@@H](COP(=O)(O)OP(=O)(O)OP(=O)(O)O)O2)c(=O)[nH]c1=O
2. CC(C)[C@H](N)C(=O)N[C@@H](CC(=O)O)C(=O)O
3. CC(C)[C@H](NC(=O)[C@@H](N)Cc1c[nH]cn1)C(=O)N[C@@H](CC(=O)O)C(=O)N[C@@H](CC(=O)O)C(=O)O [HVDD] (H-HVDD-OH)
4. Nc1nc2c(ncn2[C@@H]2O[C@H](COP(=O)(O)OP(=O)(O)O)[C@@H](O)[C@H]2O)c(=O)[nH]1
5. CC(C)C[C@H](NC(=O)CNC(=O)[C@H](CC(=O)O)NC(=O)[C@@H](N)CO)C(=O)N[C@@H](C)C(=O)O [SDGLA] (H-SDGLA-OH)

Result:
1.256
2.091
0.7593
0.6304
0.9687

Dear reader, for each entry below, please note its Ratio of metabolite abundance, Exp2_1hr.
1. O=C[C@H](O)[C@H](O)COP(=O)(O)O [Erythrose 4-phosphate]
2. CC(C)[C@H](NC(=O)[C@@H]1CCCN1C(=O)[C@@H]1CCCN1)C(=O)N[C@@H](CCC(N)=O)C(=O)O [PPVQ] (H-PPVQ-OH)
3. CC(C)C[C@H](NC(=O)[C@@H](N)CC(=O)O)C(=O)N[C@@H](CO)C(=O)O [DLS] (H-Asp-Leu-Ser-OH)

Result:
0.7497
1.014
0.8907

// provenance: paper PMC5298231
